System: Human alphaherpesvirus 2
Test: Inhibitory activity against herpes simplex virus type 2 (HSV-2) G strain
Type: functional, organism-based
quantity_measured: EC50 (µg/mL)

• CC(C)CCCCCOP(=O)(O)COCCn1cnc2c(O)nc(N)nc21 = 240
• Nc1nc(O)c2c(ncn2CCOCP(=O)(O)O)n1 = 300
• Nc1nc(N)c2ncn(CCOCP(=O)(O)O)c2n1 = 0.2
• CC(C)OP(=O)(O)COCCn1cnc2c(O)nc(N)nc21 = 5.3
• Nc1cc(N)c2ncn(CCOCP(=O)(O)O)c2n1 = 300
• CCOP(=O)(O)COCCn1cnc2c(N)ncnc21 = 70
• Nc1nc(O)c2nc(Br)n(CCOCP(=O)(O)O)c2n1 = 240
• Nc1cc2c(ncn2CCOCP(=O)(O)O)c(N)n1 = 70
• CC(C)CCCCCOP(=O)(COCCn1cnc2c(N)ncnc21)OCCCCCC(C)C = 3.2
• CC(C)OP(=O)(COCCn1cnc2c(O)nc(N)nc21)OC(C)C = 400
• Nc1nc(N)c2nc(Br)n(CCOCP(=O)(O)O)c2n1 = 20
• Nc1ncnc2c1ncn2CCOCP(=O)(O)O = 1.1
• Nc1ncc2ncn(CCOCP(=O)(O)O)c2n1 = 400
• Nc1ccn(CCOCP(=O)(O)O)c(=O)n1 = 300
• Cc1nc(N)nc2c1ncn2CCOCP(=O)(O)O = 400
• NC1=NC2N=CC=NC2C(=O)N1CCOCP(=O)(O)O (stereo not given) = 70

###

Test system: Human immunodeficiency virus 2
Test: Inhibition of human immunodeficiency virus type 2 (HIV-2) induced cytopathogenicity in CEM cells
Assay type: functional, organism-based
Conditions: Human immunodeficiency virus 2, CCRF-CEM
quantity_measured: EC50

- Nc1nc(Cl)c2ncn(CCOCP(=O)(O)O)c2n1: > 0.16 µg/mL
- Nc1cccc2c1ncn2CCOCP(=O)(O)O: > 100 µg/mL
- Nc1ncnc2c1ccn2CCOCP(=O)(O)O: 2.5 µg/mL
- O=P(O)(O)COCCn1cnc2c(S)ncnc21: > 100 µg/mL
- Cc1nc(N)nc2c1ncn2CCOCP(=O)(O)O: > 100 µg/mL
- Nc1nc(O)nc2c1ncn2CCOCP(=O)(O)O: > 100 µg/mL
- Nc1nc(N)c2nc(Br)n(CCOCP(=O)(O)O)c2n1: > 100 µg/mL
- Nc1nc(S)c2c(ncn2CCOCP(=O)(O)O)n1: > 100 µg/mL
- CC(C)OP(=O)(COCCn1cnc2c(S)ncnc21)OC(C)C: > 100 µg/mL
- CC(C)CCCCCOP(=O)(COCCn1cnc2nc(N)nc(Cl)c21)OCCCCCC(C)C: > 4 µg/mL
- Nc1cc2c(ncn2CCOCP(=O)(O)O)c(N)n1: 16 µg/mL
- Nc1cc(N)c2ncn(CCOCP(=O)(O)O)c2n1: > 100 µg/mL

###

// log10(EC50) lookup, one value per entry
Tested on: Human alphaherpesvirus 2
Test: Inhibitory activity against herpes simplex virus type 2 (HSV-2) G strain
Format: functional, organism-based
quantity_measured: log10(EC50) (log10 of the value in µg/mL)

• CCOP(=O)(O)COCCn1cnc2c(O)nc(N)nc21 = -0.15
• CCOP(=O)(O)COCCn1cnc2c(N)nc(N)nc21 = 1.85
• Nc1nc(=O)n(CCOCP(=O)(O)O)cc1Br = 2.18
• Nc1nc(Cl)c2ncn(CCOCP(=O)(O)O)c2n1 = -0.42
• CC(C)OP(=O)(O)COCCn1cnc2c(N)ncnc21 = 2.48
• Nc1nc(F)nc2c1ncn2CCOCP(=O)(O)O = 1.85
• Nc1ncnc2c1ccn2CCOCP(=O)(O)O = 1.85

###

// EC50 lookup, one value per entry
Tested on: Human immunodeficiency virus 1
Assay: Inhibitory activity of compound against human immunodeficiency virus type 1 (HIV-1) induced cytopathogenicity in MT-4 cells
Type: functional, organism-based
Settings: Human immunodeficiency virus 1, MT4
quantity_measured: EC50

• Nc1nc(=O)ccn1CCOCP(=O)(O)O = > 100 µg/mL
• CCOP(=O)(O)COCCn1cnc2c(N)nc(N)nc21 = > 100 µg/mL
• Nc1cc2c(ncn2CCOCP(=O)(O)O)c(N)n1 = 51 µg/mL
• Nc1nccc(OCCOCP(=O)(O)O)n1 = > 100 µg/mL
• Nc1ncnc2c1nc(Br)n2CCOCP(=O)(O)O = > 100 µg/mL
• CC(C)OP(=O)(COCCn1cnc2c(N)nc(N)nc21)OC(C)C = > 100 µg/mL
• Nc1cnn(CCOCP(=O)(O)O)c(=O)n1 = > 100 µg/mL
• CC(C)OP(=O)(COCCn1cnc2c(N)ncnc21)OC(C)C = 171 µg/mL
• Nc1nc(S)c2c(ncn2CCOCP(=O)(O)O)n1 = > 100 µg/mL
• CC(C)CCCCCOP(=O)(O)COCCn1cnc2c(O)nc(N)nc21 = > 100 µg/mL
• Cc1cn(CCOCP(=O)(O)O)c(=O)nc1N = > 100 µg/mL
• Cc1ncnc2c1ncn2CCOCP(=O)(O)O = > 400 µg/mL
• CSc1ncnc2c1ncn2CCOCP(=O)(O)O = > 200 µg/mL

###

System: Vaccinia virus
Assay: Inhibitory activity against vaccinia virus (VV)
Format: functional, organism-based
Settings: Orthopoxvirus vaccinia
quantity_measured: EC50

- CC(C)OP(=O)(O)COCCn1cnc2c(N)nc(N)nc21: > 400 µg/mL
- CC(C)OP(=O)(COCCn1c(Br)nc2c(N)nc(N)nc21)OC(C)C: > 400 µg/mL
- Nc1ccn(CCOCP(=O)(O)O)c(=O)c1: > 40 µg/mL
- CC(C)OP(=O)(COCCn1cnc2nc(N)nc(O)c21)OC(C)C: > 200 µg/mL
- CC(C)OP(=O)(O)COCCn1cnc2c(N)ncnc21: > 400 µg/mL
- Nc1nc(O)c2c(ncn2CCOCP(=O)(O)O)n1: > 400 µg/mL
- Nc1ccnc2c1ncn2CCOCP(=O)(O)O: > 400 µg/mL
- CC(C)CCCCCOP(=O)(COCCn1cnc2nc(N)nc(O)c21)OCCCCCC(C)C: > 16 µg/mL
- CC(C)OP(=O)(COCCn1cnc2c(N)ncnc21)OC(C)C: > 400 µg/mL
- Nc1ncnc2c1ccn2CCOCP(=O)(O)O: 150 µg/mL
- Nc1cccc2c1ncn2CCOCP(=O)(O)O: > 400 µg/mL
- Nc1nnc(N)c2c1ncn2CCOCP(=O)(O)O: > 200 µg/mL
- CCOP(=O)(O)COCCn1cnc2c(O)nc(N)nc21: 20 µg/mL
- Nc1nc(N)c2nc(Br)n(CCOCP(=O)(O)O)c2n1: 300 µg/mL
- CCOP(=O)(O)COCCn1cnc2c(N)nc(N)nc21: > 400 µg/mL
- Nc1nc(F)nc2c1ncn2CCOCP(=O)(O)O: 150 µg/mL
- Nc1nc(S)c2c(ncn2CCOCP(=O)(O)O)n1: > 100 µg/mL
- NC1=NC2N=CC=NC2C(=O)N1CCOCP(=O)(O)O (stereo not drawn): 200 µg/mL
- CC(C)CCCCCOP(=O)(COCCn1cnc2c(N)nc(N)nc21)OCCCCCC(C)C: > 16 µg/mL
- CC(C)OP(=O)(COCCn1cnc2c(S)ncnc21)OC(C)C: > 400 µg/mL
- Nc1cc2c(ncn2CCOCP(=O)(O)O)c(O)n1: 150 µg/mL
- CC(C)CCCCCOP(=O)(COCCn1cnc2nc(N)nc(Cl)c21)OCCCCCC(C)C: > 16 µg/mL
- Cc1nc(N)nc2c1ncn2CCOCP(=O)(O)O: > 400 µg/mL
- Nc1cc2c(ncn2CCOCP(=O)(O)O)c(N)n1: 150 µg/mL
- Nc1nc(O)nc2c1ncn2CCOCP(=O)(O)O: > 50 µg/mL
- O=P(O)(O)COCCn1cnc2c(S)ncnc21: > 400 µg/mL
- Nc1cc(N)c2ncn(CCOCP(=O)(O)O)c2n1: > 400 µg/mL
- Nc1nc(=O)n(CCOCP(=O)(O)O)cc1Br: > 400 µg/mL

###

// EC50 lookup, one value per entry
Test system: Human alphaherpesvirus 1
Assay: Inhibition of herpes simplex virus type 1 (HSV-1) F strain
Type: functional, organism-based
quantity_measured: EC50 (µg/mL)

- CC(C)CCCCCOP(=O)(O)COCCn1cnc2c(O)nc(N)nc21: 240
- Nc1cc2c(ncn2CCOCP(=O)(O)O)c(O)n1: 7
- Nc1nc(N)c2nc(Br)n(CCOCP(=O)(O)O)c2n1: 7
- Nc1ncc2ncn(CCOCP(=O)(O)O)c2n1: 20
- Nc1ccn(CCOCP(=O)(O)O)c(=O)n1: 300

###

Test system: Human alphaherpesvirus 2
Assay: Inhibitory activity against herpes simplex virus type 2 (HSV-2) G strain
Type: functional, organism-based
quantity_measured: EC50

- Nc1nc(S)c2c(ncn2CCOCP(=O)(O)O)n1: > 100 µg/mL
- CC(C)CCCCCOP(=O)(COCCn1cnc2nc(N)nc(Cl)c21)OCCCCCC(C)C: > 16 µg/mL
- CC(C)OP(=O)(O)COCCn1cnc2c(N)nc(N)nc21: > 400 µg/mL
- CC(C)OP(=O)(COCCn1cnc2c(S)ncnc21)OC(C)C: > 400 µg/mL
- CC(C)CCCCCOP(=O)(COCCn1cnc2nc(N)nc(O)c21)OCCCCCC(C)C: > 16 µg/mL
- CC(C)OP(=O)(COCCn1cnc2c(N)nc(N)nc21)OC(C)C: > 400 µg/mL
- Nc1nnc(N)c2c1ncn2CCOCP(=O)(O)O: > 200 µg/mL
- Nc1cccc2c1ncn2CCOCP(=O)(O)O: > 400 µg/mL
- CC(C)CCCCCOP(=O)(COCCn1cnc2c(Cl)nc(N)nc21)OCCCCCC(C)C: > 16 µg/mL
